# measured-target: T1, Human CD3eg linker (human)
# T1 construct: Single chain: epsilon and gamma subunits of human CD3 joined by a 29-mer linker, Flag-tag at the C-terminus; also called recombinant human CD3
# T1 chain: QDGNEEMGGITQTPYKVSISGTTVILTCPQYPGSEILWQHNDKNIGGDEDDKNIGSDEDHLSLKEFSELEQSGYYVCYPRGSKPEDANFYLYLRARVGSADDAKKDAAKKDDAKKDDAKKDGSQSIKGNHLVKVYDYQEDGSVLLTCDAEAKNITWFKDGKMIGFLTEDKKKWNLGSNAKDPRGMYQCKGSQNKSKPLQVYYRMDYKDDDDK
# method-notes: Biacore SPR, vs template H183/L072
Listed here are binders together with their documented fold change of affinity.

binder | fold change of affinity [fold]
H183/L072 VH S62M (antibody, name in Kabat numbering, V domains shown) VH: QVQLVESGGGLVQPGRSLRLSCAASGFTFSNAWMHWVRQAPGKGLEWVAQIKDKGNAYAAYYAPMVKGRFTISRDDSKNSIYLQMNSLKTEDTAVYYCHYVHYASASTVLPAFGVDAWGQGTTVTVSS VL: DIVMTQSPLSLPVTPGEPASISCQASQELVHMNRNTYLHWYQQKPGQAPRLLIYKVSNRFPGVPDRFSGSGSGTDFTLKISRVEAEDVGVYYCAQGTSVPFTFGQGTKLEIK | 1.3
H183/L072 VH F29L (antibody, name in Kabat numbering, V domains shown) VH: QVQLVESGGGLVQPGRSLRLSCAASGFTLSNAWMHWVRQAPGKGLEWVAQIKDKGNAYAAYYAPSVKGRFTISRDDSKNSIYLQMNSLKTEDTAVYYCHYVHYASASTVLPAFGVDAWGQGTTVTVSS VL: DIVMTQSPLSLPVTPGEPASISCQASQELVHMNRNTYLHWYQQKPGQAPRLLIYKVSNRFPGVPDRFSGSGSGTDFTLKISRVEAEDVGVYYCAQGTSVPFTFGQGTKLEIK | 0.4
H183/L072 VH A60T (antibody, name in Kabat numbering, V domains shown) VH: QVQLVESGGGLVQPGRSLRLSCAASGFTFSNAWMHWVRQAPGKGLEWVAQIKDKGNAYAAYYTPSVKGRFTISRDDSKNSIYLQMNSLKTEDTAVYYCHYVHYASASTVLPAFGVDAWGQGTTVTVSS VL: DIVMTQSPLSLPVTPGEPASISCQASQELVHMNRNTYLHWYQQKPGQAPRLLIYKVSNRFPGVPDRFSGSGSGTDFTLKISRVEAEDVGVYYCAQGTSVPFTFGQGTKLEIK | 0.9
